src = ChEMBL document CHEMBL2321714

System: MDA-MB-231
Assay: Cytotoxicity against human MDA-MB-231 cells by MTT assay
Format: functional, cell-based
pIC50: −log10 of the molar value.
recorded metric: pIC50

compound=Cc1ccc(/N=C/c2ccc(O)c(O)c2)cc1 recorded_metric=pIC50 observed_measurement=4.68
compound=Oc1ccc(/N=C/c2ccc(O)c(O)c2)cc1 recorded_metric=pIC50 observed_measurement=4.54
compound="Oc1ccc(/C=C/c2cc(O)cc(O)c2)cc1 [RESVERATROL]" recorded_metric=pIC50 observed_measurement=4.18
